meta.source: patent US20210095032A1

Target: T1, biotin-labeled human PD-1 Fc protein (human, biotin-labeled (site not stated))
T1 construct: also called PD-1-Fc-biotin
Test: competition ELISA, antibody + biotin human PD-1-Fc on coated human PD-L1-Fc (competitor PD-L1-Fc)
VALUE TYPE: IC50 (pM)
Record the value in pM, omitting the unit from your answer.

Consider the worked cases shown below.
>>> numeric_result("mouse anti-PD-1 monoclonal antibody D2A4 (antibody, V domains shown, Mouse antibody purified from a hybridoma; also called Mouse D2A4; mouse D2A4) VH: EVKLVESGGGLVKPGGSLKLSCAASGFTFSSYTMSWVRQTPAKRLEWVATISGGGSNTYYPDSVKGRFTISRDNARNTLYLQMSSLRSEDTAMYYCARQAFYSNYWYFDVWGAGTTVTVSS VL: DIQMTQSPASQSASLGESVTITCLASQTIGTWLAWYQQTPGKSPQLLIYAATSLADGVPSRFSGSGSGTKFSFKISSLQAEDFASYYCQQVSSIPWTFGGGTKLEIR")
1510
>>> numeric_result("chimeric D2A4 antibody (antibody, human IgG1, kappa, V domains shown, Mouse variable domains cloned in frame to human IgG1 and kappa constant regions; also called chD2A4; ChD2A4) VH: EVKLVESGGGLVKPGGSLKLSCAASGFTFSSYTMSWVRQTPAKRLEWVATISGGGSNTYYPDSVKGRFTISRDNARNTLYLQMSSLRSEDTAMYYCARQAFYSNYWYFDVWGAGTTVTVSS VL: DIQMTQSPASQSASLGESVTITCLASQTIGTWLAWYQQTPGKSPQLLIYAATSLADGVPSRFSGSGSGTKFSFKISSLQAEDFASYYCQQVSSIPWTFGGGTKLEIRR")
1710
>>> numeric_result("huD2H3-V14 (antibody, human IgG1, kappa, V domains shown, Humanized D2H3, human IgG1/kappa) VH: EVQLVQSGAEVKKPGSSVKVSCKASGYTFTNYWMHWVRQAPGQGLEWMGAIFPRNSETNYNQKFKARVTITADESTSTAYMELSSLRSEDTAVYYCTRNRYGLDYWGQGTLVTVSS VL: DIVMTQSPDSLAVSLGERATINCRASESVSLHGTRLMHWYQQKPGQPPKLLIYLGSNLESGVPDRFSGSGSGTDFTLTISSLQAEDVAVYYCQQSIEDPWTFGQGTKLEIKR")
680
>>> numeric_result("chimeric D2H3 antibody (antibody, human IgG1, kappa, V domains shown, Mouse variable domains cloned in frame to human IgG1 and kappa constant regions; also called chD2H3) VH: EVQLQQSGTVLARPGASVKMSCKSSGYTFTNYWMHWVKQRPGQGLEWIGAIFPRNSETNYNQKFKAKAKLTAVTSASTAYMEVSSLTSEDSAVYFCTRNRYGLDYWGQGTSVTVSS VL: DIVLTQSPGFLAVSLGQRATISCRASESVSLHGTRLMHWYHQKPGQPPKLLISLGSNLESGVPARFSGSGSETDFTLNIHPVEEEDAATYFCQQSIEDPWTFGGGTKLEIKR")
740
>>> numeric_result("Nivolumab (OPDIVO®) (antibody, V domains shown) VH: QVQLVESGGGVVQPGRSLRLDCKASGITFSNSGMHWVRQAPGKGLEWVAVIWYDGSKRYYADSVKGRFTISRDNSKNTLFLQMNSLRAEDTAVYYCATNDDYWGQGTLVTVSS VL: EIVLTQSPATLSLSPGERATLSCRASQSVSSYLAWYQQKPGQAPRLLIYDASNRATGIPARFSGSGSGTDFTLTISSLEPEDFAVYYCQQSSNWPRTFGQGTKVEIK")
420
>>> numeric_result("mouse anti-PD-1 monoclonal antibody D2H3 (antibody, V domains shown, Mouse antibody purified from a hybridoma; also called Mouse D2H3; mouse D2H3) VH: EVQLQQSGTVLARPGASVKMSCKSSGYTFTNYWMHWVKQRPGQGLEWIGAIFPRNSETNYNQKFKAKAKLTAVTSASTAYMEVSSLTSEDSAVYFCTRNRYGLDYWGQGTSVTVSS VL: DIVLTQSPGFLAVSLGQRATISCRASESVSLHGTRLMHWYHQKPGQPPKLLISLGSNLESGVPARFSGSGSETDFTLNIHPVEEEDAATYFCQQSIEDPWTFGGGTKLEIK")
890

Moving on to the next binder.
# input Input huD2A4-V6 (antibody, human IgG1, kappa, V domains shown, Humanized D2A4, human IgG1/kappa) VH: EVQLVESGGGLVQPGGSLRLSCAASGFTFSSYTMSWVRQAPGKGLEWVSTISGGGSNTYYPDSVKGRFTISRDNSKNTLYLQMNSLRAEDTAVYYCARQAFYSNYWYFDVWGKGTTVTVSS VL: DIQMTQSPSSVSASVGDRVTITCLASQTIGTWLAWYQQKPGKAPKLLIYAATSLADGVPSRFSGSGSGTDFTLTISSLQPEDFATYYCQQVSSIPWTFGGGTKVEIKR , output reported IC50.
# output 1690
